# system_under_test: Type-1 angiotensin II receptor (Bos taurus)
# assay_info: Displacement of [3H]AT from angiotensin II receptor in bovine adrenocortical membranes
# Assay type: cell membranes
Square brackets hold non-standard residues; d marks the D form. Peptide text beside a SMILES is read from it. Sar = CNCC(=O)O
measurement_name: Activity (%)

Examples from the recorded data:
CNCC(=O)N[C@@H](CCCN=C(N)N)C(=O)N[C@H](C(=O)N[C@@H](Cc1ccc([N+](=O)[O-])cc1)C(=O)N[C@H](C(=O)N[C@@H](Cc1c[nH]cn1)C(=O)N1CCC[C@@H]1C(=O)N[C@@H](Cc1ccccc1)C(=O)O)C(C)C)C(C)C    1.5
CNCC(=O)N[C@@H](CCCN=C(N)N)C(=O)N[C@H](C(=O)N[C@@H](Cc1cc(I)c(N)c(I)c1)C(=O)N[C@H](C(=O)N[C@@H](Cc1c[nH]cn1)C(=O)N1CCC[C@@H]1C(=O)N[C@@H](Cc1ccccc1)C(=O)O)C(C)C)C(C)C    16
CNCC(=O)N[C@@H](CCCN=C(N)N)C(=O)N[C@H](C(=O)N[C@@H](Cc1ccc(S(=O)(=O)O)cc1)C(=O)N[C@H](C(=O)N[C@@H](Cc1c[nH]cn1)C(=O)N1CCC[C@@H]1C(=O)N[C@@H](Cc1ccccc1)C(=O)O)C(C)C)C(C)C    0
CNCC(=O)N[C@@H](CCCN=C(N)N)C(=O)N[C@H](C(=O)N[C@@H](Cc1ccccc1)C(=O)N[C@H](C(=O)N[C@@H](Cc1c[nH]cn1)C(=O)N1CCC[C@@H]1C(=O)N[C@@H](Cc1ccccc1)C(=O)O)C(C)C)C(C)C    18
CNCC(=O)N[C@@H](CCCN=C(N)N)C(=O)N[C@H](C(=O)N[C@@H](Cc1ccc(O)c(Cl)c1)C(=O)N[C@H](C(=O)N[C@@H](Cc1c[nH]cn1)C(=O)N1CCC[C@@H]1C(=O)N[C@@H](Cc1ccccc1)C(=O)O)C(C)C)C(C)C    87

I. CNCC(=O)N[C@@H](CCCN=C(N)N)C(=O)N[C@H](C(=O)N[C@@H](Cc1cc(Cl)c(O)c(Cl)c1)C(=O)N[C@H](C(=O)N[C@@H](Cc1c[nH]cn1)C(=O)N1CCC[C@@H]1C(=O)N[C@@H](Cc1ccccc1)C(=O)O)C(C)C)C(C)C
II. CNCC(=O)N[C@@H](CCCN=C(N)N)C(=O)N[C@H](C(=O)N[C@@H](Cc1ccc(S)cc1)C(=O)N[C@H](C(=O)N[C@@H](Cc1c[nH]cn1)C(=O)N1CCC[C@@H]1C(=O)N[C@@H](Cc1ccccc1)C(=O)O)C(C)C)C(C)C
Lookup: Given the two records I and II , choose the one whose Activity value is lower. // respond with label for picked entry
Found: II

1. CNCC(=O)N[C@@H](CCCN=C(N)N)C(=O)N[C@H](C(=O)N[C@@H](Cc1ccc(N)cc1)C(=O)N[C@H](C(=O)N[C@@H](Cc1c[nH]cn1)C(=O)N1CCC[C@@H]1C(=O)N[C@@H](Cc1ccccc1)C(=O)O)C(C)C)C(C)C
2. CNCC(=O)N[C@@H](CCCN=C(N)N)C(=O)N[C@H](C(=O)N[C@@H](Cc1ccc(O)cc1)C(=O)N[C@H](C(=O)N[C@@H](Cc1c[nH]cn1)C(=O)N1CCC[C@@H]1C(=O)N[C@@H](Cc1ccccc1)C(=O)O)C(C)C)C(C)C (H-[Sar]RVYVH[dP]F-OH)
Lookup: Given the two records 1 and 2 , choose the one whose Activity value is lower. // respond with label for picked entry
Found: 1
(1: 28%, 2: 100%)

A. CNCC(=O)N[C@@H](CCCN=C(N)N)C(=O)N[C@H](C(=O)N[C@@H](Cc1ccc(N=[N+]=[N-])cc1)C(=O)N[C@H](C(=O)N[C@@H](Cc1c[nH]cn1)C(=O)N1CCC[C@@H]1C(=O)N[C@@H](Cc1ccccc1)C(=O)O)C(C)C)C(C)C
B. CNCC(=O)N[C@@H](CCCN=C(N)N)C(=O)N[C@H](C(=O)N[C@@H](Cc1ccc(O)c(N=[N+]=[N-])c1)C(=O)N[C@H](C(=O)N[C@@H](Cc1c[nH]cn1)C(=O)N1CCC[C@@H]1C(=O)N[C@@H](Cc1ccccc1)C(=O)O)C(C)C)C(C)C
Lookup: Given the two records A and B , choose the one whose Activity value is lower. // respond with label for picked entry
Found: A
(A: 2.6%, B: 61%)

1. CNCC(=O)N[C@@H](CCCN=C(N)N)C(=O)N[C@H](C(=O)N[C@@H](Cc1ccc(O)c(N)c1)C(=O)N[C@H](C(=O)N[C@@H](Cc1c[nH]cn1)C(=O)N1CCC[C@@H]1C(=O)N[C@@H](Cc1ccccc1)C(=O)O)C(C)C)C(C)C
2. CNCC(=O)N[C@@H](CCCN=C(N)N)C(=O)N[C@H](C(=O)N[C@@H](Cc1ccc(O)c([N+](=O)[O-])c1)C(=O)N[C@H](C(=O)N[C@@H](Cc1c[nH]cn1)C(=O)N1CCC[C@@H]1C(=O)N[C@@H](Cc1ccccc1)C(=O)O)C(C)C)C(C)C
Lookup: Given the two records 1 and 2 , choose the one whose Activity value is lower. // respond with label for picked entry
Found: 2
(2: 75%, 1: 132%)

1. CNCC(=O)N[C@@H](CCCN=C(N)N)C(=O)N[C@H](C(=O)N[C@@H](Cc1ccc(S(N)(=O)=O)cc1)C(=O)N[C@H](C(=O)N[C@@H](Cc1c[nH]cn1)C(=O)N1CCC[C@@H]1C(=O)N[C@@H](Cc1ccccc1)C(=O)O)C(C)C)C(C)C
2. CNCC(=O)N[C@@H](CCCN=C(N)N)C(=O)N[C@H](C(=O)N[C@@H](Cc1cc([N+](=O)[O-])c(O)c([N+](=O)[O-])c1)C(=O)N[C@H](C(=O)N[C@@H](Cc1c[nH]cn1)C(=O)N1CCC[C@@H]1C(=O)N[C@@H](Cc1ccccc1)C(=O)O)C(C)C)C(C)C
Lookup: Compare 1 and 2 by numeric Activity and name the larger one. // respond with label for picked entry
Found: 1
